Target: UniProt P29990
Sequence (P29990 2492-2758): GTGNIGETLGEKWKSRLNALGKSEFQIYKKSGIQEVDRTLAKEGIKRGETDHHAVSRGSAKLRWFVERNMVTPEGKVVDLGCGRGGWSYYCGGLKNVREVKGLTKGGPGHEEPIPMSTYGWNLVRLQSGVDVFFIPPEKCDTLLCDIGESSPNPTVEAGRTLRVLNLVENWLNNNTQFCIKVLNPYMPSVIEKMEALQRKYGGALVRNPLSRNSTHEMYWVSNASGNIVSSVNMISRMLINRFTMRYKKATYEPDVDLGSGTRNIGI
Assay: biochemical
Format: binding, dengue virus type 2 (strain 16681)
Settings: read-out: Ki (GTP displacement)
measured.property: Ki (µM)
Give a bare numeral; the unit µM is implied.

Query block: Enter recorded Ki with UniProt P29990 for O=C(O)CCN1C(=O)C(=Cc2ccc(Cl)c(Cl)c2)SC1=S here.
Result block: 13.6

* * *

Molecular target: UniProt P29990
Sequence (P29990 2492-2758): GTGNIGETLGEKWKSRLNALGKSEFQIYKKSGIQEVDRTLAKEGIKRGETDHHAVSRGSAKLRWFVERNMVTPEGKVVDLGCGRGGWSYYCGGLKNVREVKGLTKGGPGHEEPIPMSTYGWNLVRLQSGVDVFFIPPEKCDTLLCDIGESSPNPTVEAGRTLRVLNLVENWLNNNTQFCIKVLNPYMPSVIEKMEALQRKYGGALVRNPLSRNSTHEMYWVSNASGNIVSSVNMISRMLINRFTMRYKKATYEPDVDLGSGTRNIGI
Assay: biochemical
Assay type: binding, dengue virus type 2 (strain 16681)
Settings: read-out: FP_DEN_Ki_AVG_DEN_M
Values of Ki strictly less than 4 µM map to YES, and values of at least 4 µM map to NO.

Worked set:
CC(C)(C)c1cc(C=C2SC(=S)NC2=O)cc(C(C)(C)C)c1O [BG179]: YES
O=C1NC(=O)C(=Cc2ccc(Br)cc2)S1 [BG143]: NO

Query block: Criterion: Ki strictly below 4 µM. Is it met by O=C(O)CCN1C(=O)C(=Cc2ccc(-c3ccccc3)o2)SC1=S [BG292] ?
Result block: NO

Query block: Criterion: Ki strictly below 4 µM. Is it met by Cc1ccc(N2C(=O)/C(=C/c3ccccc3C(=O)O)SC2=S)c(C)c1 [BG130] ?
Result block: NO

Query block: Criterion: Ki strictly below 4 µM. Is it met by CCN(CC)c1ccc(N2C(=O)/C(=C/c3ccc(C(=O)O)cc3)SC2=S)cc1 [BG125] ?
Result block: YES

Query block: Criterion: Ki strictly below 4 µM. Is it met by O=C(O)CN1C(=O)C(=Cc2cc(Cl)cc(Cl)c2O)SC1=S [BG225] ?
Result block: NO

Query block: Criterion: Ki strictly below 4 µM. Is it met by COC(=O)CCN1C(=O)C(=Cc2ccc(Cl)cc2Cl)SC1=S [BG-332] ?
Result block: NO

Query block: Criterion: Ki strictly below 4 µM. Is it met by COc1ccccc1C=C1SC(=S)N(C(Cc2ccccc2)C(=O)O)C1=O (racemic) [BG101] ?
Result block: NO

* * *

Assay: Cell viability (CellTiter-Glo) in replicon assay
Settings: hamster, BHK-pD2hRucPac cells (dengue replicon cells), Replicon CC50, text
measured.property: CC50 at 72 h (µM)
Give a bare numeral; the unit µM is implied.

NC(=O)c1ncn([C@@H]2O[C@H](CO)[C@@H](O)[C@H]2O)n1 [Ribavirin, reference compound]: 49

Shifting focus to the compound that follows.
Query block: State, in one line, measured CC50 at 72 h of CC(C)(C)c1ccc(/C=C2/SC(=S)N(CCC(=O)O)C2=O)cc1 [BG-323]
Result block: 184

* * *

IC50 for assorted compounds
Biological target: dengue capping enzyme (Dengue virus type 2, UniProt P29990)
Give a bare numeral; the unit µM is implied.

O=C(O)CCN1C(=O)/C(=C/c2ccc(Cl)cc2Cl)SC1=S: 2.6

Shifting focus to the compound that follows.
Query block: Enter recorded IC50 with dengue capping enzyme (Dengue virus type 2, UniProt P29990) for O=C(O)CCN1C(=O)/C(=C/c2cccc(Cl)c2Cl)SC1=S here.
Result block: 155

* * *

Molecular target: yellow fever virus capping enzyme (Yellow fever virus, UniProt P03314)
Sequence (P03314 2507-2774 limits assumed): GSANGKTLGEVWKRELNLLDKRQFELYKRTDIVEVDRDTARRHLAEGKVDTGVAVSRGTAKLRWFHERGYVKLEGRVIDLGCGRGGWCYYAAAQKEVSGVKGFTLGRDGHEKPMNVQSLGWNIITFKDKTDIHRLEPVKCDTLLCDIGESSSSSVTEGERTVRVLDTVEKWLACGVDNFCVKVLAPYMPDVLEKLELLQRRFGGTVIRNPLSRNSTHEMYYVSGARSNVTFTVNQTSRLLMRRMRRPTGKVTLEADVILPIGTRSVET
Test: biochemical
Format: binding, yellow fever virus (strain 17D)
Conditions: Ki (GTP binding)
measured.property: Ki

Query block: State, in one line, measured Ki of CC(C)(C)c1ccc(/C=C2/SC(=S)N(CCC(=O)O)C2=O)cc1
Result block: ~7 µM

* * *

Ki for assorted compounds
Biological target: yellow fever virus capping enzyme (Yellow fever virus, UniProt P03314)
Assay: biochemical
Format: binding, yellow fever virus (strain 17D)
Conditions: read-out: FP_YF_KI_AVG_YF_M
Give a bare numeral; the unit µM is implied.

Example cases with answers are listed next.
COc1cccc(/C=C2\SC(=S)N(CC(=O)O)C2=O)c1OC: 34
CC(C)C(C(=O)O)N1C(=O)/C(=C/c2ccccc2Cl)SC1=S (centres unmarked): 15

Shifting focus to the compound that follows.
Query block: State, in one line, measured Ki of CC(C)c1ccc(C=C2SC(=S)N(CCC(=O)O)C2=O)cc1
Result block: 13

* * *

Target: yellow fever virus capping enzyme (Yellow fever virus)
Test: biochemical
Type: binding, yellow fever virus (strain 17D)
Conditions: read-out: FP_YF_KI_AVG_YF_M
Values of Ki strictly less than 10 µM map to true, and values of at least 10 µM map to false.

Worked set:
COc1ccccc1C=C1SC(=S)N(C(Cc2ccccc2)C(=O)O)C1=O (racemic) [BG101]: true
CC(C)(C)c1ccc(/C=C2\SC(=S)N(CCC(=O)O)C2=O)cc1 [BG295]: true
O=C(O)CN1C(=O)SC(=Cc2ccc(Cl)cc2)C1=O [BG226]: false
O=C(O)c1ccccc1/C=C1\SC(=S)N(c2cccc(C(F)(F)F)c2)C1=O [BG129]: false
C=CCOc1ccc(Cl)cc1/C=C1\SC(=S)NC1=O [BG114]: true
CC(C)c1ccc(/C=C2\SC(=S)N(CC(=O)O)C2=O)cc1 [BG182]: false
Cc1cccc(/C=C2\SC(=S)N(CN3CCCCC3)C2=O)c1 [BG136]: false
O=C1NC(=S)SC1=Cc1cccc(Cl)c1Cl [BG333]: false
O=C(O)CN1C(=O)C(=Cc2ccc(Cl)cc2Cl)SC1=S [BG229]: false

Proceed to the following item.
Query block: Criterion: Ki strictly below 10 µM. Is it met by O=C(CCCN1C(=O)/C(=C/c2ccc(F)cc2)SC1=S)Nc1cccc(C(=O)O)c1 [BG124] ?
Result block: false

* * *

pKi for assorted molecules
Target: yellow fever virus capping enzyme (Yellow fever virus, UniProt P03314)
Assay: biochemical
Format: binding, yellow fever virus (strain 17D)
Conditions: read-out: FP_YF_KI_AVG_YF_M
Please note pKi is a logarithmic value: minus log10 of concentration in mol/L. Answer with that number alone.

Query block: State, in one line, measured pKi of O=C(O)C(Cc1ccccc1)N1C(=O)C(=Cc2ccccc2Cl)SC1=S (racemic)
Result block: 5.30

Query block: State, in one line, measured pKi of COc1c(I)cc(I)cc1/C=C1\SC(=S)N(CC(=O)O)C1=O
Result block: 5.40

Query block: State, in one line, measured pKi of O=C(O)CCN1C(=O)/C(=C/c2ccc(-c3ccc(Cl)cc3Cl)o2)SC1=S
Result block: 6.00

Query block: State, in one line, measured pKi of CN1C(=O)S/C(=C\c2ccc(-c3ccc(C(=O)O)c(Cl)c3)o2)C1=O
Result block: 4.77

* * *

Test system: BHK-pD2hRucPac cells
Test: Cell viability (CellTiter-Glo) in replicon assay
Settings: read-out: Replicon Assay_CC50_M; Table 2-1
CC50 for assorted compounds
Give a bare numeral; the unit µM is implied.

CCOc1ccc(N2C(=O)C(=Cc3ccccc3C(=O)O)SC2=S)cc1: 51
CC(C)(C)c1cc(C=C2SC(=S)NC2=O)cc(C(C)(C)C)c1O: 20
CC(C)(C)c1ccc(C=C2SC(=S)N(CCC(=O)NS(C)(=O)=O)C2=O)cc1: 86
CC(C)C(C(=O)O)N1C(=O)/C(=C/c2ccccc2Cl)SC1=S (centres unmarked): 66
O=C(CN1C(=O)/C(=C/c2ccccc2Cl)SC1=S)Nc1ccccc1C(=O)O: 49

Query block: State, in one line, measured CC50 of O=C1NC(=O)C(=Cc2ccc(Br)cc2)S1
Result block: 60

Query block: State, in one line, measured CC50 of O=C(CCN1C(=O)/C(=C/c2ccccc2Cl)SC1=S)Nc1ccccc1C(=O)O
Result block: 79

Query block: State, in one line, measured CC50 of O=C(CN1C(=O)S/C(=C\c2ccccc2F)C1=O)Nc1ccccc1C(=O)O
Result block: 137

* * *

pKi for assorted compounds
Target: dengue virus capping enzyme (Dengue virus type 2, UniProt P29990)
Test: biochemical
Type: binding, dengue virus type 2 (strain 16681)
Details: read-out: FP_DEN_Ki_AVG_DEN_M
Please note pKi is a logarithmic value: minus log10 of concentration in mol/L. Answer with that number alone.

Example cases with answers are listed next.
O=C1NC(=O)C(=Cc2cc3c(cc2[N+](=O)[O-])OCO3)S1: 5.10
O=C(O)c1ccccc1/C=C1\SC(=S)N(c2cccc(C(F)(F)F)c2)C1=O: 4.96
O=C(CCN1C(=O)C(=Cc2ccc(Cl)cc2)SC1=S)Nc1ccccc1C(=O)O: 5.70
O=C(O)CN1C(=O)C(=CC=Cc2ccccc2)SC1=S: 4.11

Query block: State, in one line, measured pKi of Cc1cc(C)cc(-n2c(C)cc(/C=C3\SC(=O)NC3=O)c2C)c1
Result block: 4.96

Query block: State, in one line, measured pKi of CC(C)C(C(=O)O)N1C(=O)/C(=C/c2ccccc2Cl)SC1=S (stereo not drawn)
Result block: 4.82

Query block: State, in one line, measured pKi of O=C(O)CN1C(=O)C(=Cc2cc(Br)ccc2F)SC1=S
Result block: 4.77

Query block: State, in one line, measured pKi of O=C(O)CN1C(=O)/C(=C/c2ccc(Cl)c(Cl)c2)SC1=S
Result block: 4.96

Query block: State, in one line, measured pKi of O=C(O)CN1C(=O)C(=Cc2ccc(Cl)cc2Cl)SC1=S
Result block: 4.62

Query block: State, in one line, measured pKi of COc1ccccc1/C=C1\SC(=O)N(CC(=O)O)C1=O
Result block: 3.06

Query block: State, in one line, measured pKi of O=C(O)C(Cc1ccccc1)N1C(=O)C(=Cc2ccccc2Cl)SC1=S (racemic)
Result block: 5.40
